B1: HDV Ribozyme (parent)
chain: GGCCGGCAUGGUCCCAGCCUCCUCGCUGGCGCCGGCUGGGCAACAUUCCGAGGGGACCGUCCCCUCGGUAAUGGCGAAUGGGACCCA

- Variants of: B1
- Assay Remarks: self-cleavage, relative activity (ratio to wild type); higher = more cleavage; co-transcriptional
# key: entry, value: self-cleavage

Mutant Id: C18A A51G
self-cleavage: 0.0554
--
Mutant Id: C48G C75U
self-cleavage: 0.285
--
Mutant Id: G2C G10A
self-cleavage: 0.145
--
Mutant Id: C24U U79G
self-cleavage: 0.244
--
Mutant Id: G74C G82U
self-cleavage: 0.179
--
Mutant Id: G55A C58U
self-cleavage: 1.07
--
Mutant Id: G39A G81U
self-cleavage: 0.147
--
Mutant Id: C36G G53U
self-cleavage: 0.148
--
Mutant Id: C22G C30U
self-cleavage: 0.0723
--
Mutant Id: G50U C75A
self-cleavage: 0.0773
--
Mutant Id: G10C G35A
self-cleavage: 0.525
--
Mutant Id: C64G A70C
self-cleavage: 0.536
--
Mutant Id: G34C G50A
self-cleavage: 0.287
--
Mutant Id: U12C C21A
self-cleavage: 0.0573
--
Mutant Id: G11A U46A
self-cleavage: 0.148
--
Mutant Id: G34A C57A
self-cleavage: 0.13
--
Mutant Id: C64G C85G
self-cleavage: 0.872
--
Mutant Id: C57A G67C
self-cleavage: 1.05
--
Mutant Id: U20C C48G
self-cleavage: 0.0594
--
Mutant Id: A43G G74C
self-cleavage: 0.0791
--
Mutant Id: C48A C75A
self-cleavage: 0.326
--
Mutant Id: G59U U79G
self-cleavage: 0.692
--
Mutant Id: C44U A71C
self-cleavage: 0.851
--
Mutant Id: G5C G6A
self-cleavage: 0
--
Mutant Id: G6C C32G
self-cleavage: 1.1
--
Mutant Id: C41U C58G
self-cleavage: 0.889
--
Mutant Id: U9C C18A
self-cleavage: 0.128
--
Mutant Id: G1U C62U
self-cleavage: 0.443
--
Mutant Id: U20G U27G
self-cleavage: 0.332
--
Mutant Id: C3A C49A
self-cleavage: 0.554
--
Mutant Id: G40U C48G
self-cleavage: 0.665
--
Mutant Id: C48G C85G
self-cleavage: 0.875
--
Mutant Id: U9A C58U
self-cleavage: 0.77
--
Mutant Id: C41U C61U
self-cleavage: 0.946
--
Mutant Id: C18A C30U
self-cleavage: 0
--
Mutant Id: G5C A77C
self-cleavage: 0
--
Mutant Id: C44A G68U
self-cleavage: 0.554
--
Mutant Id: U37A C63G
self-cleavage: 0.17
--
Mutant Id: A8C C62G
self-cleavage: 0.475
--
Mutant Id: C21G U79A
self-cleavage: 0.0875
--
Mutant Id: G28C U72C
self-cleavage: 0
--
Mutant Id: U27C G82C
self-cleavage: 0.356
--
Mutant Id: C13G G25C
self-cleavage: 0.0875
--
Mutant Id: C21U C84U
self-cleavage: 0.0923
--
Mutant Id: U46A A51G
self-cleavage: 0.739
--
Mutant Id: U20C A56C
self-cleavage: 0.0615
--
Mutant Id: C14U C19G
self-cleavage: 0.0396
--
Mutant Id: C61U A77U
self-cleavage: 0.475
--
Mutant Id: C24G C66U
self-cleavage: 0.166
--
Mutant Id: G40A G80A
self-cleavage: 0.427
--
Mutant Id: C7A G81A
self-cleavage: 0.0302
--
Mutant Id: C30A C58G
self-cleavage: 0.596
--
Mutant Id: G82A A87C
self-cleavage: 0.583
--
Mutant Id: C4G C58U
self-cleavage: 0.404
--
Mutant Id: G1C G52U
self-cleavage: 0.219
--
Mutant Id: C21G C57A
self-cleavage: 0.166
--
Mutant Id: C75U A83C
self-cleavage: 0.128
--
Mutant Id: G59U U69G
self-cleavage: 1.14
--
Mutant Id: G38C A56G
self-cleavage: 0.197
--
Mutant Id: C33A G50C
self-cleavage: 0.203
--
Mutant Id: U37C G68C
self-cleavage: 0.682
--
Mutant Id: C19A U72C
self-cleavage: 0.0978
--
Mutant Id: G2U A71U
self-cleavage: 0.0287
--
Mutant Id: C19A A71C
self-cleavage: 0.0396
--
Mutant Id: G34U G68C
self-cleavage: 0.322
--
Mutant Id: G25C G39C
self-cleavage: 0

meta.source: the RNAGym collection of RNA variant scans (doi:10.7554/elife.80360)
